molecular target: Metabotropic glutamate receptor 2 (Rattus norvegicus); assay: Compound was evaluated for the inhibitory activity against cloned Metabotropic glutamate receptor 2
Entries and their EC50 values follow.
reported-endpoint: EC50

Cc1o[nH]c(=O)c1CC[C@@H](N)C(=O)O :: > 1000 µM
Cc1o[nH]c(=O)c1CC[C@H](N)C(=O)O :: > 1000 µM
